Biological target: Protein-glutamine gamma-glutamyltransferase (Homo sapiens, UniProt P21980)
Sequence (P21980 whole entry): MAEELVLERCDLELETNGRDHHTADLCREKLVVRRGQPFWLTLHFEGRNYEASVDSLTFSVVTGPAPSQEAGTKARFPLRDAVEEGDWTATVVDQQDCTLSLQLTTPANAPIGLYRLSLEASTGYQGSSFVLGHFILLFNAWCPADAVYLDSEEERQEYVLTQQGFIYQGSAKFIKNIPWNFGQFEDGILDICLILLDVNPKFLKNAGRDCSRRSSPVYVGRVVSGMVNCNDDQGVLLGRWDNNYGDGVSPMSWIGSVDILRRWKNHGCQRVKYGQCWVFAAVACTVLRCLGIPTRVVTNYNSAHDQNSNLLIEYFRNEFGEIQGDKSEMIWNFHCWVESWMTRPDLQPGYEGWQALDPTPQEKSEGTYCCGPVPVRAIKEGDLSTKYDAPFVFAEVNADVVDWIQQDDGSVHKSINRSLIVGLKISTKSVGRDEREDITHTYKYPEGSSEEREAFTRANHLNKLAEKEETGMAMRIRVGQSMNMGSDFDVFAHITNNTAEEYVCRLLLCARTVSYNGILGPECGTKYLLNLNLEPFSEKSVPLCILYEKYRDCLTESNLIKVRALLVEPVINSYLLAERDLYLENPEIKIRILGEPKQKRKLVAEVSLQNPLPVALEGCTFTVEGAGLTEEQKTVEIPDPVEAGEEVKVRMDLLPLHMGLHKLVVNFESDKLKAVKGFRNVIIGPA
Assay: Reversible inhibition of human TGase 2 using Z-Glu(HMC)-Gly-OH as substrate measured at 20 secs interval over 900 secs by fluorimetric assay
Measured metric: Ki (µM)
One number for each entry, in µM.

C=CC(=O)NCCCC[C@H](NC(=O)Cc1ccccc1)C(=O)N1CCN(c2cccc(I)n2)CC1	2.92
C=CC(=O)NCCCC[C@H](NC(=O)Cc1ccccc1)C(=O)N1CCN(c2cccc(Br)n2)CC1	5.65
C=CC(=O)NCCCC[C@H](NC(=O)Cc1ccccc1)C(=O)N1CCN(c2cccc(F)n2)CC1	6.28

Field: next molecule
Which measured Ki value corresponds to CCC(=O)NCCCC[C@H](NC(=O)Cc1ccccc1)C(=O)N1CCN(c2ccc([N+](=O)[O-])nc2)CC1 ? 15
